Origin of the recorded values: ChEMBL document CHEMBL1146947

Target: Soluble guanylate cyclase (Homo sapiens) (UniProt Q02153+O75343+P33402+Q02108)
Assay: Effect on cGMP production in porcine iris-ciliary body at 10 uM
Format: functional
Settings: Sus scrofa, target entry is the homologue from another species
experimentalReadout: Activity (pmol/mg)

Worked cases, Activity given:
CC(C)(C)C(=O)O/N=C(/c1c[nH]cn1)[N+](=O)[O-] : 0.36
CCCC(=O)O/N=C(/c1c[nH]cn1)[N+](=O)[O-] : 0.5
Cn1cncc1C(=N)NOC(=O)C(C)(C)C : 0.63

A: CC(=O)O/N=C(/c1c[nH]cn1)[N+](=O)[O-]
B: CCCC(=O)ONC(=N)c1cncn1C
Ask: // returns A or B , whichever has the lower Activity Response format: the label of the selected entry.
Result: B
(B: 0.23 pmol/mg, A: 0.45 pmol/mg)
